Hey, just so you know, these numbers are from ChEMBL document CHEMBL1148511.

// reported Ratio Ki for each item listed
Target: Coagulation factor VII and X (Homo sapiens) (UniProt P00742+P08709)
Assay: Selectivity for F7a/TF over F10a
Type: protein assay
Lab note: record the figure alone, no unit after it.

Use these answered entries as a reference point.
compound: O=C(NCc1cccc(-c2cccc(-c3cc4c[nH]ccc-4n3)c2O)c1)Nc1ccc(F)cc1F
assay.result: 1700
--
compound: O=C(NCc1cccc(-c2cccc(-c3cc4c[nH]ccc-4n3)c2O)c1)Nc1ccsc1
assay.result: 623
--
compound: COc1ccc(NC(=O)NCc2cccc(-c3cccc(-c4cc5c[nH]ccc-5n4)c3O)c2)cc1
assay.result: 705
--
compound: O=C(Cc1ccccc1)NCc1cccc(-c2cccc(-c3cc4c[nH]ccc-4n3)c2O)c1
assay.result: 46
--
compound: O=C(NCc1cccc(-c2cccc(-c3cc4c[nH]ccc-4n3)c2O)c1)N(O)Cc1ccccc1
assay.result: 653
--
compound: O=C(NCc1cccc(-c2cccc(-c3cc4c[nH]ccc-4n3)c2O)c1)Nc1ccc(F)cc1
assay.result: 382
--
compound: CN1CCN(C(=O)NCc2cccc(-c3cccc(-c4cc5c[nH]ccc-5n4)c3O)c2)CC1
assay.result: 1
--
compound: COc1cccc(NC(=O)NCc2cccc(-c3cccc(-c4cc5c[nH]ccc-5n4)c3O)c2)c1
assay.result: 1600

q: // fetch Coagulation factor VII and X (Homo sapiens) (UniProt P00742+P08709) Ratio Ki for O=C(NCc1cccc(-c2cccc(-c3cc4c[nH]ccc-4n3)c2O)c1)Nc1ccccc1F
a: 1930

q: Under Coagulation factor VII and X (Homo sapiens) (UniProt P00742+P08709): Ratio Ki value of O=C(NCc1cccc(-c2cccc(-c3cc4c[nH]ccc-4n3)c2O)c1)C(CO)c1cccnc1 (stereo unspecified) ?
a: 149

q: Can you look up Ratio Ki on Coagulation factor VII and X (Homo sapiens) (UniProt P00742+P08709) for O=C(NCc1cccc(-c2cccc(-c3cc4c[nH]ccc-4n3)c2O)c1)Nc1cccs1 ?
a: 600

q: Give recorded Ratio Ki with Coagulation factor VII and X (Homo sapiens) (UniProt P00742+P08709) for the following compound: O=C(NCc1cccc(-c2cccc(-c3cc4c[nH]ccc-4n3)c2O)c1)Nc1ccccn1
a: 67

q: Find the measured Ratio Ki: item O=C(NCc1cccc(-c2cccc(-c3cc4c[nH]ccc-4n3)c2O)c1)Nc1c(F)cccc1F , target or system Coagulation factor VII and X (Homo sapiens) (UniProt P00742+P08709).
a: 2700
